testMethodNotes: Components of the Cytosolic LPS Sensing Pathway: Gene Identification via Genome-wide siRNA Screen;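 note: robust z of the log signal after scaling to non-targeting control siRNA wells of the plate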
experimentalContext: RAW264.7 macrophages, IL-1a HTRF, actives lie on both sides, screened at 100 nM (by protocol), cells primed 5 h with Pam3CSK4 first
The campaign covered roughly 53,000 sequences. About 3,700 (7%) were called active.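 Rule for the calls: active = gene knockdowns whose robust z-score for IL-1 alpha signal is at least 2 or at most -2, so actives lie on both sides; inactive = the rest.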 Many of the other results were omitted from the sample, so actives are more common in it than they were.
Pick one and only one: 1.0 for active, 0.0 for inactive

These recorded examples may help you get a feel for the data.
INSERT INTO results (sequenceentry, classassignment) VALUES
  ('GGGAUGACCUGCCAUUCAUTT against Atp7a', 1.0),
  ('GGACAUGUUUGUGUUAAAGTT against Ctnna1', 0.0),
  ('GGGAUCAGAGAUAUAGCCATT against Vmn1r192', 0.0),
  ('CCGUAGACUCGGUGAAGCUTT against Plpbp', 0.0),
  ('GGUUUGUGGAUGACAACGGTT against Mtf1', 0.0),
  ('GGCCAACACUCAGAAAAGGTT against Zfp474', 0.0),
  ('GGACUUGGAAGUAAUUUUCTT against C230071H18Rik', 1.0),
  ('GCCUGUCAACUACCCAUAUTT against Ergic3', 0.0),
  ('GGAAAACCCAGGUCAGAAUTT against Serpina9', 0.0),
  ('GGUGCCCAUGCUUGUAGGATT against Cstdc1', 1.0);

Recorded call for GGCGAACACUGUCAUGAAUTT against Spin4 ?
1.0

Recorded call for CCUCUAUGUGAGAUUUGAGTT against Mamdc2 ?
0.0

Recorded call for GGUAUUGUGAAACGUACACTT against Ky ?
0.0

Recorded call for CGGAAUCAUACAUUGGUUCTT against Zfp217 ?
0.0

Recorded call for CGACCAGCUUCUAGUGCUUTT against Pcdha8 ?
0.0

Recorded call for GGACAGGUGUCGAUCAAACTT against Zfp280c ?
0.0

Recorded call for GGCGGUACCUCUUCUUCAUTT against Aipl1 ?
1.0

Recorded call for GCUCCUAGUGUUUUUGUGGTT against Rplp0 ?
1.0

Recorded call for AAUUCUGGACGAGGAGCAUTT against Abcc5 ?
1.0

Recorded call for GGGCAAACGGAGGAAUGAATT against Slc35g3 ?
1.0

Recorded call for CGACUUUUCUCAUUAUGAGTT against Ythdf1 ?
1.0

Recorded call for GGGACUAUUCCUCCAGAGUTT against Cast ?
0.0

Recorded call for GCAGGAAGCCCAGUAAAGUTT against Figla ?
0.0

Recorded call for CGGUCCCAAACGGUCAAGUTT against Tafa2 ?
0.0

Recorded call for GGACAGACGUGCACUUAGATT against Garnl3 ?
0.0

Recorded call for GGGAGAGUCUUGGCAACUUTT against Btbd17 ?
1.0

Recorded call for GGAAAUAAGCAGCGCAUGCTT against Ippk ?
0.0

Recorded call for GGAAAAUAGGGCGACAAAUTT against Tdrd7 ?
0.0

Recorded call for GGCCAGAACUGUUCCAAUUTT against Cilp ?
0.0

Recorded call for GGCUGUUCAAAAAUUUCGGTT against Sox17 ?
0.0

====

testMethodNotes: Components of the Cytosolic LPS Sensing Pathway: Gene Identification via Genome-wide siRNA Screen;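 note: robust z of the log signal after scaling to non-targeting control siRNA wells of the plate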
experimentalContext: RAW264.7 macrophages, IL-1a HTRF, actives lie on both sides, screened at 100 nM (by protocol), cells primed 5 h with Pam3CSK4 first
Description: Non-canonical inflammasome activation by cytosolic LPS is a critical component of the host response to Gram-negative bacterial infection, however we lack a comprehensive understanding of the cellular processes that control this pathway. […] Lipofectamine RNAiMAX Transfection Reagent ([…]; Invitrogen) was added in […] serum-free, antibiotic-free media to plate wells using a Thermo Scientific Matrix WellMate and Microplate Stacker. […] The plates were read on an EnVision plate reader (PerkinElmer). […]
Among all 53,000 sequences or so, about 3,700 (7%) were called active. The entries come from a sample that favours actives as a whole.
quantity: z-score
# answer = number (no unit)

INSERT INTO assay_data (sequenceentry, measurement) VALUES
  ('GGCCAGAAUGUAUAAAGCUTT against Mboat7', -1),
  ('GGUGCUCUCAAGUGGGAUUTT against Gm5114', -2.15),
  ('UGCGGUUGAAUUCUCCCAUTT against Fbll1', -0.525);

get_value(item= GGCUAGAAAGGGUCUCAAATT against Cyp3a25 , readout=z-score) returns -1.48

get_value(item= GCUUCCAGUCAGUGGUUACTT against Rara , readout=z-score) returns 1.07

get_value(item= CCAUCCCAUUUAAUGGAUGTT against Olfr1257 , readout=z-score) returns 1.09

get_value(item= GGACAAGGAACAGAGCCUUTT against Rnf183 , readout=z-score) returns -1.27
